Assay: HepG2 cytotoxicity, primary screen, cytotoxicity control for P. falciparum antimalarial project, cell-based, ATP luminescence (AID 2303);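 note: 0% = DMSO wells and 100% = digitonin-killed cells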
Conditions: HepG2 viability, 24-48 h, at 10 µM, active compounds read high
Metric: inhibition (%)

1. CC(C)(C)c1ccc(CN2CCC(CNC(=O)c3cc(-c4cccc(F)c4)cs3)C2)cc1 (stereo not given); 32
2. CSCCCN1CCC(O)(c2ccc3oc(C(=O)Nc4ccc5sc(C)nc5c4)cc3c2)CC1; 10
3. C[C@@H]1CN(c2cnn(Cc3ccc(NC(=O)Nc4ccc(-c5ccccc5)cc4)cc3)c(=O)c2Cl)C[C@H](C)N1; 82
4. Cc1cc(NC(=O)[C@H](CC2CCCCC2)Nc2ccc(C#N)c3ccccc23)ccc1F; 21
5. O=C(Nc1cccnc1)c1cc(-c2cccnc2)nc2ccc(Br)cc12; 9

====

Biological target: Calcium-dependent protein kinase 4 (Plasmodium falciparum (isolate 3D7))
Assay: PfCDPK4 kinase inhibitors, biochemical, TCAMS library (AID 1159588)
Details: recombinant PfCDPK4, Kinase-Glo ATP depletion luminescence
Measured potencies and affinities stand elsewhere. Active and inactive are the calls of the source. The limit is not given here; nearly all actives have IC50 up to about 0.91 µM.
Metric: outcome

1) Cc1nc2ccccc2c(=O)n1N=Cc1ccccc1[N+](=O)[O-]; inactive
2) CCCCSc1ccc2nc(-c3c[nH]c4ccc(C#N)cc34)cn2c1; inactive
3) CCCn1c(Sc2ccc(C#N)c([N+](=O)[O-])c2)nnc1-c1ccc(Cl)cc1; inactive
4) Cc1cc(OCCCN2CCCCC2)ccc1NC(=O)COc1ccc(Cl)cc1C(=O)c1cc(Cl)cc(C#N)c1; inactive
5) CCOc1ccccc1CNc1nccc(NCCc2cn(C)c3ccccc23)n1; inactive
6) O=C(Nc1cccc(F)c1)NC1CCN(c2ccnc3cc(Cl)ccc23)CC1; inactive
7) COC(=O)Nc1cc(C(F)(F)F)ccc1N1CCC(CNS(=O)(=O)c2ccc(OC)cc2)CC1; inactive
8) CN1CCN(c2ccnc3ccc(NC(=O)Nc4ccc5ccccc5c4)cc23)CC1; inactive
9) Cc1cccc2[nH]c(-c3ccc(-c4ccc(CNC(C)C)cc4)cc3)nc12; inactive
10) Cc1cc(N[C@@H](CC(C)C)C(=O)Nc2ccccc2)nc(Nc2ccccc2)n1; inactive
11) NC1=NC2(CCCCC2)N(OCCCCCCN2C(=O)c3ccccc3C2=O)C(N)=N1; inactive
12) Cc1ccccc1C1CCN(C2CCC(NC(=O)c3ccc(-c4ccccc4)s3)CC2)CC1 (stereo not given); inactive
13) COc1ccc(OC)c(Cc2cnc3nc(N)nc(N)c3c2C)c1; inactive
14) Cc1ccc(CN2CCCN(Cc3cccc(NC(=O)c4cc5ccccc5s4)c3)CC2)cc1C; inactive
15) CC1CCN(C(=O)[C@H](Cc2c[nH]c3ccccc23)NS(=O)(=O)c2ccc(Cl)cc2)CC1; inactive
16) COC(=O)c1ccc(C(=O)NCCCCN2CCC(c3ccc4c(c3OC)CCCC4)CC2)cc1-c1ccc(C(F)(F)F)cc1; inactive
17) Cc1[nH]c(C)c(-c2ccc(Cl)cc2Cl)c(=O)c1Br; inactive
18) COCCN1CCC(N(Cc2ccc(-c3ccc(C(F)(F)F)cc3)cc2)C(=O)Cn2c(CCc3cccc(F)c3F)cc(=O)c3c2CCC3)CC1; inactive
19) Cc1ccc(NC(=O)N2CCN(CCCCCNC(=O)/C=C/c3ccc(Cl)c(Cl)c3)CC2)cc1C; inactive
20) CCCCN=C(N)Nc1ccc(OCCCOc2ccc(NC(N)=NCCCC)cc2)cc1; inactive

====

Assay: HepG2 cytotoxicity, primary screen, cytotoxicity control for P. falciparum antimalarial project, cell-based, ATP luminescence (AID 2303);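 note: 0% = DMSO wells and 100% = digitonin-killed cells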
Conditions: HepG2 viability, 24-48 h, at 10 µM, active compounds read high
Decision: inhibition beneath 10% gives Satisfied; inhibition meeting or exceeding 10% gives Not satisfied.

1. COc1ccc(-c2nc3cccnc3n2CC(=O)Nc2c(C)cc(C)cc2C)c(OC)c1; Not satisfied
2. CC1(C)CCC(C)(C)c2c1ccc(C1CCN(CCCCNC(=O)c3ccc(-c4ccc(Cl)cc4)cc3)CC1)c2O; Not satisfied
3. COCCN1CCN(Cc2cccc(-c3ccc(-c4nc5ccccc5[nH]4)cc3)c2)CC1; Satisfied
4. COc1ccc2ncc(F)c(NC(=O)C3CCC(NCc4cc5cc(F)cc(F)c5[nH]4)CC3)c2n1 (centres undefined); Not satisfied
5. Cc1ccc2nc(C)cc(Nc3ccccc3O)c2c1; Satisfied
6. COc1c(C)cc(I)cc1CNCCCNc1cc(=O)c2ccccc2[nH]1; Satisfied
7. Cc1cccc2[nH]c(-c3ccc(-c4ccc(CN5CCN(CCO)CC5)cc4)s3)nc12; Not satisfied
8. Cc1ccccc1OCCCON1C(N)=NC(N)=NC1(C)C; Not satisfied
9. CCSc1nc2sc3c(c2c(=O)n1-c1ccccc1)CCN(C)C3; Not satisfied
10. Cc1ccc(CNC(=O)[C@H](CCCN)Nc2cc(C)nc(Nc3ccccc3)n2)cc1; Satisfied
11. CCOc1cc(C(=O)NCCCN2CCN(c3cccc(Cl)c3)CC2)ccc1-c1nc2cc(Cl)c(F)cc2[nH]1; Not satisfied
12. COc1ccc2nccc([C@@H](O)CN3CCC(NCCOc4c(C)cccc4F)CC3)c2c1; Satisfied
13. Cc1noc(C)c1-c1cccc(CNCc2ccc(-c3cccc(-c4nc5c(C)cccc5[nH]4)c3)cc2)c1; Not satisfied
14. O=C(Nc1ccc(Cl)cc1)c1cccc(S(=O)(=O)NC2CCN(CC3CCCCC3)CC2)c1; Not satisfied
15. O=C(Nc1cccc(CN2CCN(C(=O)c3cccc(Cl)c3)CC2)c1)c1cccs1; Not satisfied
16. NC(N)=Nc1nc(-c2cccc(NC(=O)NCCc3c[nH]c4ccc(OCc5ccccc5)cc34)c2)cs1; Satisfied
17. O=C(Nc1ccc(-c2ccccc2)c(OCCN2CCNCC2)c1)c1ccc(-c2ccc(Cl)cc2)cc1; Not satisfied
18. Fc1ccccc1-c1cc(Nc2ccncc2)nc(-c2cccnc2)n1; Not satisfied

====

Molecular target: Plasmodium falciparum protein kinase 6 (PK6, PF3D7_1337100) (UniProt Q8IDW1)
Experiment: PfPK6 kinase inhibitors, biochemical, TCAMS library (AID 1159586)
Conditions: recombinant PfPK6, Kinase-Glo ATP depletion luminescence
Measured potencies and affinities stand elsewhere. Active and inactive are the calls of the source. How the calls were made is not given here.
Metric: outcome

1. CC[C@H]1CN(C/C=C/c2ccc(OC)cc2)CC[C@H]1CCCc1ccnc2ccc(O)cc12; inactive
2. CN1CCN(Cc2ccc(-c3ccc4c(Nc5cc(O)c(F)cc5Cl)ccnc4c3)o2)CC1; inactive
3. COc1cc2nc(SCCCC#N)n(C3CCCCCC3)c(=N)c2cc1OC; inactive
4. Cn1nc2ccc3ccccc3c2nc1=N; inactive
5. COc1cc(-c2cc3cc(Cl)c(Cl)cc3[nH]2)ccc1C(=O)NC1CCN(Cc2ccccc2)CC1; inactive
6. Nc1nc(N)c2c(ccc3c2ccn3Cc2ccc(Cl)cc2)n1; inactive
7. CCc1cn2c3c(cc(C(=O)N[C@@H](Cc4ccccc4)[C@H](O)CN[C@@H](C)CC)cc13)N(C)S(=O)(=O)CC2; inactive
8. CCC(CC(C)C(=O)O)=C(c1ccccc1)c1ccccc1 (stereo not given); inactive
9. COC(=O)c1ccc(-c2ccc(-c3cccnc3)cc2C)cc1; inactive
10. CCN(CC)CCN(Cc1ccc(-c2ccc(C(F)(F)F)cc2)nc1)C(=O)Cn1c(SCc2ccc(F)cc2)nc(=O)c2sccc21; inactive
11. Cc1ccc(Nc2nnc(SCC(=O)Nc3ccc(CN4CCCC4)cc3)s2)cc1; inactive
12. CCCCCCN1CCCN(Cc2cccc(C(=O)Nc3ccc(C(C)(C)C)cc3)c2)CC1; inactive
13. Cc1cc(N(C)C)nc(Nc2ccc(NC(=O)CCc3ccccc3)cc2)n1; inactive
14. O=C(/C=C/c1ccc(Cl)c(Cl)c1)NCCCCCN1CCCN(C(=O)Nc2ccc(Cl)c(C(F)(F)F)c2)CC1; inactive
15. CCN(CC)CCCOC(=O)c1ccc2c(c1)-c1ccc(C(=O)OCCCN(CC)CC)c3cccc-2c13; inactive
16. Cc1cc(N(C)C)nc(Nc2ccc(NS(=O)(=O)c3ccccc3)cc2)n1; inactive
17. Cc1ccc(C)c(C2CCN(CCCCNC(=O)c3ccc(NC(=O)c4ccc(Cl)cc4)cc3)CC2)c1; inactive
18. C[C@H]1[C@H](c2cccc(Cl)c2)OCC(C)(C)N1C(=O)CCN1CCCCC1; inactive
19. CN1CCCc2ccc(NC(=O)c3cnc(-c4ccccc4)cn3)cc21; inactive
20. FC(F)(F)c1ccc2nc(-c3ccc(-c4cccc(CNCC5CCCO5)c4)s3)[nH]c2c1 (stereo not given); inactive

====

Experiment: inhibition of 3D7 malaria parasite growth – strain 3D7 (AID 2306);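 note: 0% = DMSO wells and 100% = chloroquine plus artemisinin control wells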
Conditions: P. falciparum 3D7 erythrocytic growth, LDH absorbance, 72 h; at 2 µM; active compounds read high
Metric: growth inhibition (%)

1. c1ccc(Oc2ccc(Nc3ccnc(Nc4ccc(CN5CCOCC5)cc4)n3)cc2)cc1; 92
2. N#CCCN1CCN(Cc2ccc(-c3cccc(-c4nc5ccc(F)cc5[nH]4)c3)cc2)CC1; 91
3. O=C(Nc1cccc(N2CCC(NCc3cnn(-c4cccc(F)c4)c3)CC2)c1)c1ccncc1; 84
4. CCC1(C)CC(CCNCc2ccccc2O)(c2ccccc2OC)CCO1 (stereo not given); 94
5. Cc1cccc2[nH]c(-c3ccc(-c4ccc(CNCc5cnn(-c6ccccc6)n5)cc4)cc3)nc12; 101
6. COc1cc(Nc2nc(N)c3cc(OC)c(OC)cc3n2)cc(OC)c1; 101
7. CN1CCN(c2cc3c(cc2Cl)CCN3C(=O)Cc2ccc(NC(=O)Nc3cccc4ccccc34)cc2)CC1; 92
8. COc1ccc(CN2CCCN(Cc3ccc(C(=O)Nc4ccc(Cl)cc4)cc3)CC2)cc1; 91
9. Cn1cncc1-c1ccc2ncnc(Nc3ccc4c(cnn4Cc4ccccc4)c3)c2c1; 100
10. CN(C)c1ccnc2ccc(NC(=O)Nc3ccnc4ccccc34)cc12; 100
11. C[C@H](NC(=O)c1c(OC2CN(C(c3ccccc3)c3ccccc3)C2)c(-c2ccccc2)nc2ccccc12)C1CCCCC1; 92
12. Cc1cc(NN=Cc2cccc([N+](=O)[O-])c2)c2ccc(F)cc2n1; 101
13. NC(=O)CCC(NC(=O)CNC(=O)Nc1cccc(C(F)(F)F)c1)C(=O)O (stereo not given); 97
14. COc1ccc(NS(=O)(=O)c2ccccc2Br)cc1N1CCN(C)CC1; 94
15. CCCCCCN(CCCCCC)CC(O)c1c(OC)ccc2ccccc12 (stereo not given); 101
16. N#Cc1ccc(CN2CCC(Oc3ccc(NC(=O)c4ccco4)cc3Cl)CC2)cc1; 95
17. CN1CCc2cc(O)c(NS(=O)(=O)c3ccc(-c4ccc(Cl)cc4)cc3)cc2CC1; 104
18. COc1cccc(Nc2nc(C)cc(NC3CCCC3)n2)c1; 101
19. Cc1cc(N2CCCC2)nc(/N=C(\N)Nc2cccc(C(F)(F)F)c2)n1; 101
20. CS(=O)(=O)c1cccc(-c2cnc3[nH]cc(-c4ccc(CCC(=O)O)cc4)c3c2)c1; 97
